- test: Kinetic solubility in water and bio-relevant media (SGF, FaSSIF, FeSSIF) at 37° C.
- Type: physicochemical
- condition.notes: water, 37 °C, thermodynamic from solid, text summary of Table 15
- Description: Agilent 1260 HPLC was utilized and detailed chromatographic conditions are provided in Tables 3 and 4 for purity and solubility test, respectively. About 20 mg of free base (form A) HCl salt (form B), and HBr salt (form D) were added to a 5-mL glass vials followed by the addition of 4 mL of the corresponding medium/solvent into each glass vial to form a suspension. The vials were capped and rolled at 37° C. (25 rpm). […] The residual solids were analyzed by XRPD.

compound	solubility
COc1cc(C(=O)O)cc2sc(N3CCN(Cc4c(-c5c(Cl)cccc5Cl)noc4C4CC4)C[C@H]3C)nc12 [Form A]	< 7 µg/mL

---

- test: Approximate solubility of Form A in solvents at room temperature (stepwise solvent addition, visual)
- Type: physicochemical
- condition.notes: organic solvent or mixture, thermodynamic from solid, CPME
experimental.readout: solubility

molecule	reported.result
COc1cc(C(=O)O)cc2sc(N3CCN(Cc4c(-c5c(Cl)cccc5Cl)noc4C4CC4)C[C@H]3C)nc12 [Form A]	11.5 to 23 mg/mL

---

- test: Approximate solubility of Form A in solvents at room temperature (stepwise solvent addition, visual)
- Assay type: physicochemical
- condition.notes: organic solvent or mixture, thermodynamic from solid, THF

compound	solubility
COc1cc(C(=O)O)cc2sc(N3CCN(Cc4c(-c5c(Cl)cccc5Cl)noc4C4CC4)C[C@H]3C)nc12 [Form A]	> 40 mg/mL

---

- test: Approximate solubility of Form A in solvents at room temperature (stepwise solvent addition, visual)
- Format: physicochemical
- condition.notes: organic solvent or mixture, thermodynamic from solid, MeOH
experimental.readout: solubility

compound	experimental.readout	reported.result
COc1cc(C(=O)O)cc2sc(N3CCN(Cc4c(-c5c(Cl)cccc5Cl)noc4C4CC4)C[C@H]3C)nc12 [Form A]	solubility	10.5 to 21 mg/mL

---

- test: Approximate solubility of Form A in solvents at room temperature (stepwise solvent addition, visual)
- Assay type: physicochemical
- condition.notes: organic solvent or mixture, thermodynamic from solid, Acetone

molecule	solubility
COc1cc(C(=O)O)cc2sc(N3CCN(Cc4c(-c5c(Cl)cccc5Cl)noc4C4CC4)C[C@H]3C)nc12 [Form A]	> 42 mg/mL

---

- test: Approximate solubility of Form A in solvents at room temperature (stepwise solvent addition, visual)
- Type: physicochemical
- condition.notes: organic solvent or mixture, thermodynamic from solid, 2-MeTHF

compound	solubility
COc1cc(C(=O)O)cc2sc(N3CCN(Cc4c(-c5c(Cl)cccc5Cl)noc4C4CC4)C[C@H]3C)nc12 [Form A]	> 40 mg/mL

---

- test: Approximate solubility of Form A in solvents at room temperature (stepwise solvent addition, visual)
- Assay type: physicochemical
- condition.notes: organic solvent or mixture, thermodynamic from solid, MIBK
experimental.readout: solubility

compound	experimental.readout	reported.result
COc1cc(C(=O)O)cc2sc(N3CCN(Cc4c(-c5c(Cl)cccc5Cl)noc4C4CC4)C[C@H]3C)nc12 [Form A]	solubility	10 to 20 mg/mL

---

- test: Approximate solubility of Form A in solvents at room temperature (stepwise solvent addition, visual)
- Format: physicochemical
- condition.notes: organic solvent or mixture, thermodynamic from solid, EtOAc
- Procedure: Approximately 2 mg of Form A of Compound I was added into a 3-mL glass vial. At room temperature, the solvents in Table 8 were then added stepwise into the vials until the solids were dissolved visually or a total volume of 2 mL was reached.

molecule	solubility
COc1cc(C(=O)O)cc2sc(N3CCN(Cc4c(-c5c(Cl)cccc5Cl)noc4C4CC4)C[C@H]3C)nc12 [Form A]	10 to 20 mg/mL

---

- test: Approximate solubility of Form A in solvents at room temperature (stepwise solvent addition, visual)
- Type: physicochemical
- condition.notes: organic solvent or mixture, thermodynamic from solid, IPAc

compound	solubility
COc1cc(C(=O)O)cc2sc(N3CCN(Cc4c(-c5c(Cl)cccc5Cl)noc4C4CC4)C[C@H]3C)nc12 [Form A]	3.8 to 6.3 mg/mL

---

- test: Approximate solubility of Form A in solvents at room temperature (stepwise solvent addition, visual)
- Type: physicochemical
- condition.notes: organic solvent or mixture, thermodynamic from solid, MeOH/H2O (9:1)

compound	solubility
COc1cc(C(=O)O)cc2sc(N3CCN(Cc4c(-c5c(Cl)cccc5Cl)noc4C4CC4)C[C@H]3C)nc12 [Form A]	5300 to 10500 µg/mL

---

- test: Approximate solubility of Form A in solvents at room temperature (stepwise solvent addition, visual)
- Type: physicochemical
- condition.notes: organic solvent or mixture, thermodynamic from solid, ACN
experimental.readout: solubility

compound	experimental.readout	reported.result
COc1cc(C(=O)O)cc2sc(N3CCN(Cc4c(-c5c(Cl)cccc5Cl)noc4C4CC4)C[C@H]3C)nc12 [Form A]	solubility	4800 to 9500 µg/mL
